- TEST_PROTOCOL: Mouse Pharmacokinetic Study (Example 1C)
- Format: in vivo
- RUN_PARAMETERS: mouse; CD-1 mice, iv, 3 mg/kg; plasma
Please note: Y applies when AUC(0-t) is 600 ng·h/mL or greater, and N applies otherwise.

Please review the following examples before continuing.
>  <MOLECULE>
C[C@H](O)c1cnn2c(N[C@@H]3CCc4[nH]c5ccccc5c4C3)nc(-c3cncc(F)c3)nc12 [I-118]

>  <CAT>
N

$$$$
>  <MOLECULE>
Fc1cncc(-c2nc(N[C@@H]3CCc4[nH]c5ccccc5c4C3)n3ncc(Br)c3n2)c1 [I-154]

>  <CAT>
Y

$$$$

Here is the next item to consider.
Hi, just wondering whether Fc1cncc(-c2cc(OC3CCCC3)nc(NCCc3c[nH]c4ccccc34)n2)c1 [I-59] shows AUC(0-t) of 600 ng·h/mL or higher. Y

* * *

- TEST_PROTOCOL: Mouse Pharmacokinetic Study (Example 1C)
- Format: in vivo
- RUN_PARAMETERS: mouse; CD-1 mice, po, 30 mg/kg; plasma
Criterion: AUC(0-t) meeting or surpassing 10000 ng·h/mL. Met: class 1. Not met: class 0.

A selection of reference data follows.
>  <MOLECULE>
CN(C)c1cnn2c(N[C@@H]3CCc4[nH]c5ccccc5c4C3)nc(-c3cncc(F)c3)nc12 [I-129]

>  <CAT>
class 0

$$$$
>  <MOLECULE>
Cc1cnn2c(N[C@@H]3CCc4[nH]c5ccccc5c4C3)nc(-c3cncc(F)c3)nc12 [I-201]

>  <CAT>
class 0

$$$$
>  <MOLECULE>
Fc1cncc(-c2nc(N[C@@H]3CCc4[nH]c5ccccc5c4C3)c3ncccc3n2)c1 [I-126]

>  <CAT>
class 1

$$$$

Given the entry CN(C)c1cnn2c(NCCc3c[nH]c4ccccc34)cc(-c3cncc(F)c3)nc12 [I-203] , answer whether its AUC(0-t) meets or surpasses 10000 ng·h/mL. class 0

Repeat for the following molecule: C[C@H](O)c1cnn2c(NCCc3c[nH]c4ccccc34)cc(-c3cncc(F)c3)nc12 [I-222b] class 0

* * *

The entries below are paired with their reported Mouse S9 Stability: % Remaining After 60 Minutes.
- TEST_PROTOCOL: In Vitro Mouse liver S9 Metabolic Stability Assay (Example 1D)
- Type: in vitro ADME
- RUN_PARAMETERS: CD-1 mouse liver S9, 1 μM compound, 1 mg/mL S9 protein, 37° C., NADPH regenerating system, UDPGA, PAPS
Give the number; % is assumed, so skip it.

# annotated cases, reported Mouse S9 Stability: % Remaining After 60 Minutes shown
>  <COMPOUND>
CC(C)c1ccc2c(N[C@@H]3CCc4[nH]c5ccccc5c4C3)nc(-c3cncc(F)c3)nn12 [I-156]

>  <READING>
28

$$$$
>  <COMPOUND>
CC(C)c1cnc2c(NCCc3c[nH]c4ccccc34)nc(-c3cncc(F)c3)cn12 [I-106]

>  <READING>
1

$$$$
>  <COMPOUND>
Cc1cnn2c(NCCc3cc[nH]c3)cc(-c3cncc(F)c3)nc12 [I-196]

>  <READING>
0

$$$$

Would you mind telling me what Mouse S9 Stability: % Remaining After 60 Minutes value was observed for CC(C)c1cnn2c(NCCc3c[nH]c4cccnc34)nc(-c3cncc(F)c3)nc12 [I-101] ? 1

Proceed to CC(C)c1cnn2c(N[C@@H]3CCc4[nH]c5ccccc5c4C3)nc(-c3cncc(F)c3)nc12 [I-40] 87

Next compound up: CC(C)n1cnc2c(NCCc3c[nH]c4ccccc34)nc(-c3cncc(F)c3)nc21 [I-6] 0

Consider next the compound CC(C)c1cnn2c(N[C@@H]3CCc4[nH]c5ccccc5c4C3)cc(-c3cncc(F)c3)nc12 [I-75a] in the same way. 65

What do you get for CC(C)c1cnn2c(NCCc3cc[nH]c3)nc(-c3cncc(F)c3)nc12 [I-166] ? 4

Now give it for Cc1[nH]c2c(F)cc(F)cc2c1CCNc1cc(-c2cncc(F)c2)nc2c(C(C)C)cnn12 [I-107] too. 0

Try this compound next: CC(C)Oc1cc(-c2cncc(F)c2)nc(NCCc2c[nH]c3ccccc23)n1 [I-72] 3

Next entry: C[C@H](O)c1cnn2c(NCCc3c[nH]c4ccccc34)cc(-c3cncc(F)c3)nc12 [I-222b] 0

Param item: C[C@@H](O)c1cnn2c(NCCc3c[nH]c4ccccc34)cc(-c3cncc(F)c3)nc12 [I-222a] 1

Now the compound Fc1cncc(-c2cc(NCCc3c[nH]c4ccccc34)n3ncc(Br)c3n2)c1 [I-39] 30

Now consider Cc1[nH]c2c(F)cccc2c1CCNc1nc(-c2cncc(F)c2)nc2ccnn12 [I-200] and answer again. 0

Would you kindly repeat that for CC(C)c1cnn2c(NCCc3c[nH]c4ccccc34)cc(-c3ccccc3)nc12 [I-45] ? 19

Entry CN(C)c1cnn2c(N[C@H]3Cc4ccc(O)cc4C3)cc(-c3cncc(F)c3)nc12 [I-204b] please 0

One more compound: Cc1[nH]c2c(F)cccc2c1CCNc1nc(-c2cncc(F)c2)nc2c(C)cnn12 [I-202] 0

Same read-out for Fc1cncc(-c2nc(N[C@@H]3CCc4[nH]c5ccccc5c4C3)n3ncc(Br)c3n2)c1 [I-154] ? 13

* * *

Below, each of the molecules is paired with its reported Mouse S9 Stability: % Remaining After 60 Minutes value.
- TEST_PROTOCOL: In Vitro Mouse liver S9 Metabolic Stability Assay (Example 1D)
- Format: in vitro ADME
- RUN_PARAMETERS: CD-1 mouse liver S9, 1 μM compound, 1 mg/mL S9 protein, 37° C., NADPH regenerating system, UDPGA, PAPS
- Procedure: CD-1 mouse liver S9 were purchased from Corning or XenoTech LLC or BioreclamationIVT, LLC or WuXi prepared. […] Test compounds were incubated at 37° C. with liver S9 (pooled from multiple donors) at 1 μM in the presence of a NADPH regenerating system, UDPGA, and PAPS at 1 mg/mL S9 protein. […] Samples were analyzed by LC/MS/MS and disappearance of test compounds were assessed based on peak area ratios of analyte /IS (no standard curve). All samples were injected and analyzed using LC-MS/MS. […]
Just the number in %, nothing appended.

Guide cases for Mouse S9 Stability: % Remaining After 60 Minutes, answers given:
>  <MOLECULE>
Fc1cncc(-c2nc(N[C@@H]3CCc4[nH]c5ccccc5c4C3)n3nccc3n2)c1

>  <READING>
3

$$$$
>  <MOLECULE>
C[C@@H](O)c1cnn2c(N[C@@H]3CCc4[nH]c5ccccc5c4C3)cc(-c3cncc(F)c3)nc12 [I-198a]

>  <READING>
30

$$$$
>  <MOLECULE>
CC(C)(C)c1cnn2c(NCCc3c[nH]c4ccccc34)cc(-c3cncc(F)c3)nc12

>  <READING>
11

$$$$
>  <MOLECULE>
CC(C)(O)c1cnn2c(NCCc3c[nH]c4ccccc34)cc(-c3cncc(F)c3)nc12

>  <READING>
2

$$$$
>  <MOLECULE>
CC(C)c1cnn2c(NCCc3c[nH]c4ccccc34)cc(-c3cncc(C#N)c3)nc12

>  <READING>
2

$$$$
>  <MOLECULE>
Fc1cncc(-c2cc(NCCc3c[nH]c4ccccc34)n3nccc3n2)c1

>  <READING>
7

$$$$
>  <MOLECULE>
NC(=O)c1cnn2c(NCCc3c[nH]c4ccccc34)cc(-c3cncc(F)c3)nc12

>  <READING>
1

$$$$
>  <MOLECULE>
Cc1cnn2c(N[C@@H]3CCc4[nH]c5ccccc5c4C3)nc(-c3cncc(F)c3)nc12

>  <READING>
34

$$$$
>  <MOLECULE>
Cc1[nH]c2c(F)cccc2c1CCNc1cc(-c2cncc(F)c2)nc2c(C(F)(F)F)cnn12

>  <READING>
2

$$$$
>  <MOLECULE>
Fc1cncc(-c2nc(NCCc3c[nH]c4ccccc34)cc(N3CCCC3)n2)c1

>  <READING>
8

$$$$

If you can, please state the reported Mouse S9 Stability: % Remaining After 60 Minutes value of `CC(C)c1cnn2c(NCCc3c[nH]c4c(F)cc(F)cc34)nc(-c3cncc(F)c3)nc12` . 36

Then what about the molecule `Cc1[nH]c2c(F)cccc2c1CCNc1cc(-c2cncc(F)c2)nc2ccnn12` ? 0

For `CN1CCN(C(=O)c2cnn3c(NCCc4c[nH]c5ccccc45)cc(-c4cncc(F)c4)nc23)CC1` then? 4

* * *

- TGT: AHR (UniProt P35869)
- Construct: IC50
- TEST_PROTOCOL: DRE-Luciferase Reporter Assay (Alternate Method) (Example 1B)
- Type: cell-based, murine or human
- RUN_PARAMETERS: cell line and AHR activating ligand not specified
This section presents compounds with their documented IC50 values.

# count of solved cases: 8
>  <COMPOUND>
CC(C)c1cnn2c(NC3CCc4[nH]c5ccccc5c4C3)nc(-c3ccc4c(c3)OC(F)(F)O4)nc12 (centres unmarked)

>  <TGT>
AHR (UniProt P35869)

>  <IC50>
> 1500 nM

$$$$
>  <COMPOUND>
Cc1[nH]c2c(F)cc(F)cc2c1CCNc1nc(-c2cncc(F)c2)nc2c1ncn2C(C)C

>  <TGT>
AHR (UniProt P35869)

>  <IC50>
< 500 nM

$$$$
>  <COMPOUND>
Cc1cnn2c(NC3Cc4ccc(O)cc4C3)cc(-c3cncc(F)c3)nc12 (centres unmarked)

>  <TGT>
AHR (UniProt P35869)

>  <IC50>
< 500 nM

$$$$
>  <COMPOUND>
CC(C)c1cnn2c(NCCc3c[nH]c(N)n3)nc(-c3cncc(F)c3)nc12

>  <TGT>
AHR (UniProt P35869)

>  <IC50>
> 1500 nM

$$$$
>  <COMPOUND>
O=C(O)c1cnn2c(NC[C@H](O)c3c[nH]c4ccccc34)cc(-c3cncc(F)c3)nc12 [I-158a]

>  <TGT>
AHR (UniProt P35869)

>  <IC50>
> 1500 nM

$$$$
>  <COMPOUND>
O=C(c1cnn2c(NCCc3c[nH]c4ccccc34)cc(-c3cncc(F)c3)nc12)N1CCCCC1

>  <TGT>
AHR (UniProt P35869)

>  <IC50>
< 500 nM

$$$$
>  <COMPOUND>
CC(C)c1cnn2c(NCCc3c[nH]c4ccccc34)cc(-c3cccnc3)nc12

>  <TGT>
AHR (UniProt P35869)

>  <IC50>
< 500 nM

$$$$
>  <COMPOUND>
CC(C)c1cnn2c(NC3CCc4[nH]c5ccccc5c4C3)nc(-c3ccc(=O)n(C)c3)nc12 (centres unmarked)

>  <TGT>
AHR (UniProt P35869)

>  <IC50>
> 1500 nM

$$$$

So what IC50 did `Fc1cncc(-c2nc(N[C@@H]3CCc4[nH]c5ccccc5c4C3)n3ncc(C(F)(F)F)c3n2)c1` get with AHR (UniProt P35869)? < 500 nM

Same lookup for `O=C(c1cnn2c(NCCc3c[nH]c4ccccc34)cc(-c3cncc(F)c3)nc12)N1CCNCC1` , please. > 1500 nM

Please give the result for `Cc1[nH]c2c(F)cccc2c1CCNc1cc(-c2cncc(F)c2)nc2c(C(=O)N3CCOCC3)cnn12` too. < 500 nM

Do the same for CNC(=O)C(Cc1c[nH]c2ccccc12)Nc1cc(-c2cncc(F)c2)nc2c(C)cnn12 (centres unmarked) please > 1500 nM

Input `Cc1cnn2c(N[C@@H]3Cc4ccc(O)cc4C3)cc(-c3cncc(F)c3)nc12` < 500 nM

Please give the result for `Fc1cncc(-c2nc(N[C@@H]3CCc4[nH]c5ccccc5c4C3)n3nccc3n2)c1` too. < 500 nM
